Test system: L02
Test: Cytotoxicity against human LO2 cells assessed as reduction in cell viability after 24 hrs by MTT assay
Format: cell-based
Settings: L02, 24 h
READOUT_LABEL: IC50

>>> test_result("CCN(CC)CCNC(=O)c1cc(C(CC)(CC)c2ccc(C#CC3(O)CCC3)c(C)c2)cn1CC")
"> 50 µM"

----------
Target: UniProt P11473
Experiment: Binding affinity at VDR (unknown origin) assessed as relative VDR-probe inhibition at 1 uM by fluorescence polarization assay relative to 1,25(OH)2D3
Returns one of y or n; y when inhibition is >= 50%.

>>> category("CCN(CC)CCNC(=O)c1cc(C(CC)(CC)c2ccc(C#CC(C)(C)O)c(C)c2)cn1CC")
"y"
>>> category("CCN(CC)CCNC(=O)c1cc(C(CC)(CC)c2ccc(C#CC3(O)CCCCC3)c(C)c2)cn1CC")
"n"
>>> category("CCN(CC)CCNC(=O)c1ccc(C(CC)(CC)c2ccc(C#CC(C)(C)O)c(C)c2)n1CC")
"y"
>>> category("CCCC(O)(C#Cc1ccc(C(CC)(CC)c2ccc(C(=O)NCCN(CC)CC)n2CC)cc1C)CCC")
"y"

----------
The reader will find reported inhibition values listed item by item below.
Target: Vitamin D3 receptor (Homo sapiens)
Sequence (whole entry): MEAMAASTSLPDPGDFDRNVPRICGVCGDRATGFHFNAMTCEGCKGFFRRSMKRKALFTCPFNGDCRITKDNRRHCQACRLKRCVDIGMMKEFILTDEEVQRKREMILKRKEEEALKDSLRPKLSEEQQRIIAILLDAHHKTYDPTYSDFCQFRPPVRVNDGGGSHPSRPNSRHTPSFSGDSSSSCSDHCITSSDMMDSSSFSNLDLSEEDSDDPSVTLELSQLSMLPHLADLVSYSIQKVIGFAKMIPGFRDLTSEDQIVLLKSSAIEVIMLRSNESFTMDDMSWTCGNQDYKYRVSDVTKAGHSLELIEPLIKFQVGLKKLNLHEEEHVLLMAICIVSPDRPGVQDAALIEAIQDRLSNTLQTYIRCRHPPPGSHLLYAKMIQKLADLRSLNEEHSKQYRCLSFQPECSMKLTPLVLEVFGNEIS
Test: Binding affinity at VDR (unknown origin) assessed as relative VDR-probe inhibition at 1 uM by fluorescence polarization assay relative to 1,25(OH)2D3
READOUT_LABEL: inhibition (%)

>>> test_result("CCN(CC)CCNC(=O)c1ccc(C(CC)(CC)c2ccc(C#CC(C)(O)CC)c(C)c2)n1CC (stereo not drawn)")
63.4
>>> test_result("CCN(CC)CCNC(=O)c1cc(C(CC)(CC)c2ccc(C#CC3(O)CCC3)c(C)c2)cn1CC")
49.3
>>> test_result("CCN(CC)CCNC(=O)c1cc(C(CC)(CC)c2ccc(C#CC(C)(O)CC)c(C)c2)cn1CC (stereo not drawn)")
59.2

Where these numbers come from: ChEMBL document CHEMBL4411295
